Cited source: ChEMBL document CHEMBL3112403

Target Entity: UDP-N-acetylmuramoyl-tripeptide--D-alanyl-D-alanine ligase (Streptococcus pneumoniae)
Sequence (whole entry): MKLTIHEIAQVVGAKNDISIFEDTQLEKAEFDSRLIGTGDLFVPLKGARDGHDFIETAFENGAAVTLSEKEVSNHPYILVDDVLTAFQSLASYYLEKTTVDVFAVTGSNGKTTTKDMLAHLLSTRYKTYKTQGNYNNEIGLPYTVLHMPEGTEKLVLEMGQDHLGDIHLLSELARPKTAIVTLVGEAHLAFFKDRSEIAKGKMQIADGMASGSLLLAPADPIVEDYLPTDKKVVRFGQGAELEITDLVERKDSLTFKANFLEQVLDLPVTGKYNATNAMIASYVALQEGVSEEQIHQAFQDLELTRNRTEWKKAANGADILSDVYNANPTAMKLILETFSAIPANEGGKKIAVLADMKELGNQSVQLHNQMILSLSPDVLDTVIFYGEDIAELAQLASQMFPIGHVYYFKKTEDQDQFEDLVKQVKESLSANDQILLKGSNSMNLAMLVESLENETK
Method Description: Inhibition of Streptococcus pneumoniae MurF ligase using D-Ala-D-Ala as substrate assessed as residual activity at 100 uM after 15 mins by malachite green assay
Experimental Endpoint: Activity (%)
Write the answer as a number in %, unit excluded.

Known results for compounds:
Structure | Target Entity | Experimental Endpoint | Unit Abbrev | Value Observed
N#Cc1c(NC(=O)c2cccc(OCn3cccn3)c2)sc2c1CCCC2 | UDP-N-acetylmuramoyl-tripeptide--D-alanyl-D-alanine ligase (Streptococcus pneumoniae) | Activity | % | 89
N#Cc1ccc(COc2ccc(Cl)c(C(=O)Nc3sc4c(c3C#N)CCCC4)c2)cc1 | UDP-N-acetylmuramoyl-tripeptide--D-alanyl-D-alanine ligase (Streptococcus pneumoniae) | Activity | % | 102
N#Cc1c(NC(=O)c2cc(OCc3ccccc3)ccc2Cl)sc2c1CCCC2 | UDP-N-acetylmuramoyl-tripeptide--D-alanyl-D-alanine ligase (Streptococcus pneumoniae) | Activity | % | 81
N#Cc1c(NC(=O)c2cccc(OCCN)c2)sc2c1CCCC2 | UDP-N-acetylmuramoyl-tripeptide--D-alanyl-D-alanine ligase (Streptococcus pneumoniae) | Activity | % | 98
N#Cc1c(NC(=O)c2cccc(OCC3CCCC3)c2)sc2c1CCCC2 | UDP-N-acetylmuramoyl-tripeptide--D-alanyl-D-alanine ligase (Streptococcus pneumoniae) | Activity | % | 81

With those in mind, consider the next compound.
Entry under review: N#Cc1c(NC(=O)c2cccc(OCc3ccc(Cl)cc3)c2)sc2c1CCCC2 . Reported Activity?
102

* * *

System: Escherichia coli
Method Description: Antibacterial activity against Escherichia coli 1411 assessed as growth inhibition by broth microdilution method in presence of polymyxin B nonapeptide
Type: functional
Experimental Endpoint: MIC

Completed entries (count: 4):
Structure | MIC
COc1ccc(CN2CCc3c(sc(NC(=O)c4cc(OCCNC(=O)C(F)(F)F)ccc4Cl)c3C#N)C2)cc1 | > 256 µg/mL
N#Cc1c(NC(=O)c2cc(OCCNC(=O)C(F)(F)F)ccc2Cl)sc2c1CCN(Cc1cccc(O)c1)C2 | > 256 µg/mL
Cl.N#Cc1c(NC(=O)c2cc(S(=O)(=O)NCCN)c(Cl)cc2Cl)sc2c1CCCC2 | 128 µg/mL
COC(=O)c1ccc(CN2CCc3c(sc(NC(=O)c4cc(OCCNC(=N)N)ccc4Cl)c3C#N)C2)cc1.Cl | 32 µg/mL

Now for a further molecule.
I'd like to know its MIC. The molecule in question is CC(C)(C)OC(=O)N1CCc2c(sc(NC(=O)c3cc(OCCNC(=O)C(F)(F)F)ccc3Cl)c2C#N)C1
> 256 µg/mL

* * *

List of MIC values.
System: Escherichia coli
Method Description: Antibacterial activity against Escherichia coli 1411 assessed as growth inhibition by broth microdilution method
Type: functional

Quick check: MIC of COC(=O)c1ccc(CN2CCc3c(sc(NC(=O)c4cc(OCCNC(=O)C(F)(F)F)ccc4Cl)c3C#N)C2)cc1 ?
> 256 µg/mL

Likewise for N#Cc1c(NC(=O)c2cc(OCCN)ccc2Cl)sc2c1CCN(Cc1ccc(C(=O)O)cc1)C2 ?
> 256 µg/mL

Then this compound: Cl.N#Cc1c(NC(=O)c2cc(OCCNC(=N)N)ccc2Cl)sc2c1CCN(Cc1cccc(O)c1)C2
128 µg/mL

Also, N#Cc1c(NC(=O)c2cc(OCCN)ccc2Cl)sc2c1CCN(Cc1ccc(-n3cnnn3)cc1)C2 please.
> 256 µg/mL

Param item: Cl.N#Cc1c(NC(=O)c2cc(OCCCNC(=N)N)ccc2Cl)sc2c1CCCC2
32 µg/mL

* * *

This section presents molecules with their documented MIC values.
Tested on: Escherichia coli
Method Description: Antibacterial activity against Escherichia coli 1411 assessed as growth inhibition by broth microdilution method in presence of polymyxin B nonapeptide
Format: functional
Give your result in µg/mL as a bare value.

For orientation, consider the following solved cases.
Molecule | MIC, µg/mL
N#Cc1ccc(CN2CCc3c(sc(NC(=O)c4cc(OCCN)ccc4Cl)c3C#N)C2)cc1 | 64
Cl.N#Cc1c(NC(=O)c2cc(OCCN)ccc2Cl)sc2c1CCCC2 | 32
N#Cc1c(NC(=O)c2cc(OCCN)ccc2Cl)sc2c1CCC(c1ccc(O)cc1)C2 (centres undefined) | 16

Moving on to the next molecule.
Give the measured MIC of Cl.N#Cc1c(NC(=O)c2cc(OCCNC(=N)N)ccc2Cl)sc2c1CCCC2 .
8

* * *

Quick reference for MIC among some compounds
System: Escherichia coli
Method Description: Antibacterial activity against Escherichia coli 1411 assessed as growth inhibition by broth microdilution method in presence of polymyxin B nonapeptide
Type: functional

Structure | Target Entity | MIC
Cl.N#Cc1c(NC(=O)c2cc(OCCNC(=N)N)ccc2Cl)sc2c1CCN(Cc1ccccc1)C2 | Escherichia coli | 16 µg/mL

What measured MIC goes with COc1ccc(CN2CCc3c(sc(NC(=O)c4cc(OCCN)ccc4Cl)c3C#N)C2)cc1 ?
64 µg/mL

Now consider N#Cc1c(NC(=O)c2cc(OCCN)ccc2Cl)sc2c1CCNC2 .
> 256 µg/mL

Check N#Cc1c(NC(=O)c2cc(OCCNC(=O)C(F)(F)F)ccc2Cl)sc2c1CCNC2.O=C(O)C(F)(F)F too.
> 256 µg/mL

Cool, now N#Cc1c(NC(=O)c2cc(OCCNC(=O)C(F)(F)F)ccc2Cl)sc2c1CCN(Cc1ccc(-n3cnnn3)cc1)C2
> 256 µg/mL

Next: N#Cc1ccc(CN2CCc3c(sc(NC(=O)c4cc(OCCNC(=O)C(F)(F)F)ccc4Cl)c3C#N)C2)cc1
> 256 µg/mL

Now give it for N#Cc1c(NC(=O)c2cc(OCCN)ccc2Cl)sc2c1CCN(Cc1ccc(-n3cnnn3)cc1)C2 too.
> 256 µg/mL

Another compound: COC(=O)c1ccc(CN2CCc3c(sc(NC(=O)c4cc(OCCNC(=O)C(F)(F)F)ccc4Cl)c3C#N)C2)cc1
> 256 µg/mL

* * *

Tested on: Escherichia coli
Method Description: Antibacterial activity against Escherichia coli 1411 assessed as growth inhibition by broth microdilution method
Type: functional
Experimental Endpoint: MIC

Use the examples below as a reference point.
Structure | MIC
N#Cc1c(NC(=O)c2cc(OCCNC(=O)C(F)(F)F)ccc2Cl)sc2c1CCN(Cc1ccccc1)C2 | > 256 µg/mL
N#Cc1ccc(CN2CCc3c(sc(NC(=O)c4cc(OCCNC(=O)C(F)(F)F)ccc4Cl)c3C#N)C2)cc1 | > 256 µg/mL
N#Cc1ccc(CN2CCc3c(sc(NC(=O)c4cc(OCCN)ccc4Cl)c3C#N)C2)cc1 | < 256 µg/mL
N#Cc1c(NC(=O)c2cc(OCCN)ccc2Cl)sc2c1CCNC2 | > 256 µg/mL
N#Cc1c(NC(=O)c2cc(OCCNC(=O)C(F)(F)F)ccc2Cl)sc2c1CCN(Cc1cccc(O)c1)C2 | > 256 µg/mL

Value lookup for MIC; key = COc1ccc(CN2CCc3c(sc(NC(=O)c4cc(OCCNC(=O)C(F)(F)F)ccc4Cl)c3C#N)C2)cc1
> 256 µg/mL

Item: CC(C)(C)OC(=O)N1CCc2c(sc(NC(=O)c3cc(OCCNC(=O)C(F)(F)F)ccc3Cl)c2C#N)C1
> 256 µg/mL

Continue with Cl.N#Cc1c(NC(=O)c2cc(OCCNC(=N)N)ccc2Cl)sc2c1CCN(Cc1ccc(O)cc1)C2
64 µg/mL

# repeat for N#Cc1c(NC(=O)c2cc(OCCCN)ccc2Cl)sc2c1CCCC2
64 µg/mL
